assay: Solubility of the salt in water; format: physicochemical; conditions: sodium salt
Quantity kind: solubility (mg/mL)

>>> obs_value("O=C(O)C[C@]1(O)CCC[C@H](/C=C/C(O)CCCCc2ccccc2)C1 (relative stereo)")
100
